The origin of these recorded values is patent US12534469B2.

system: MOLM14 D835Y cells; test: MOLM14 D835Y cell viability assay (Cell Titer Glo); assay type: cell-based; details: Homo sapiens, MOLM-14, 48 h
pIC50: −log10 of the molar value.
endpoint-label: pIC50

Worked examples, 10 compounds total:
FC(F)COc1cnn2c(-c3cccc(N[C@H]4CNC[C@@H]4F)n3)cnc2c1 = 6.49
COc1cc2ncc(-c3nc(N[C@H]4CNC[C@@H]4F)c(F)cc3F)n2nc1C(C)(C)O = 6.96
COc1cc2ncc(-c3cccc(N[C@H]4CNC[C@@H]4F)n3)n2nc1C(F)F = 7.11
COc1cc2ncc(-c3cccc(N[C@H]4CNC[C@@H]4F)n3)n2nc1C1(C(F)(F)F)CC1 = 6.45
COc1cc2ncc(-c3nc(N[C@@H]4CCCNC4)c(F)cc3F)n2nc1C1CC1 = 8.52
COc1cc2ncc(-c3cccc(N[C@H]4CNC[C@@H]4C(F)(F)F)n3)n2nc1C1CC1 = 7.77
COc1cc2ncc(-c3cccc(N[C@H]4CNCC[C@@H]4F)n3)n2nc1C1CC1 = 7.47
COc1cc2ncc(-c3cccc(N[C@H]4CNC[C@@H]4F)n3)n2nc1-c1cnn(C)c1 = 7.01
COc1cc2ncc(-c3nc(N[C@H]4CNC[C@@H]4F)c(F)cc3F)n2nc1C1CC1 = 7.96
COc1cc2ncc(-c3cccc(N[C@H]4CNCC[C@@H]4F)n3)n2nc1-c1cnn(C)c1 = 7.31

A = COc1cc2ncc(-c3cc(F)cc(N[C@H]4CNCC[C@@H]4F)n3)n2nc1C1CC1
B = COc1cc2ncc(-c3cccc(N[C@H]4CNCC45CC5)n3)n2nc1C1CC1
// which entry has the larger pIC50 value, A or B ? // caller expects the label of the chosen entry B
(B: 7.70, A: 6.64)

A = F[C@H]1CNCC[C@@H]1Nc1cccc(-c2cnc3ccc(-c4cnn5ccccc45)nn23)n1
B = F[C@H]1CNC[C@@H]1Nc1cccc(-c2cnc3ccc(-c4cnn5ccccc45)nn23)n1
Pick one, A or B : lowest reported pIC50. Answer by stating the label of the chosen item. A

a = COc1cc2ncc(-c3nc(N[C@@H]4CCCNC4)c(F)cc3F)n2nc1C(C)(C)O
b = COc1cc2ncc(-c3cccc(N[C@@H]4CCCNC4)n3)n2nc1C1(C(F)(F)F)CC1
Would you kindly point out which of a and b has the smaller pIC50 figure? Response format: the label of the selected entry. a
